Biological target: Serine/threonine-protein kinase B-raf (Homo sapiens, UniProt P15056, V600E)
Sequence (P15056 2-766 V600E limits assumed): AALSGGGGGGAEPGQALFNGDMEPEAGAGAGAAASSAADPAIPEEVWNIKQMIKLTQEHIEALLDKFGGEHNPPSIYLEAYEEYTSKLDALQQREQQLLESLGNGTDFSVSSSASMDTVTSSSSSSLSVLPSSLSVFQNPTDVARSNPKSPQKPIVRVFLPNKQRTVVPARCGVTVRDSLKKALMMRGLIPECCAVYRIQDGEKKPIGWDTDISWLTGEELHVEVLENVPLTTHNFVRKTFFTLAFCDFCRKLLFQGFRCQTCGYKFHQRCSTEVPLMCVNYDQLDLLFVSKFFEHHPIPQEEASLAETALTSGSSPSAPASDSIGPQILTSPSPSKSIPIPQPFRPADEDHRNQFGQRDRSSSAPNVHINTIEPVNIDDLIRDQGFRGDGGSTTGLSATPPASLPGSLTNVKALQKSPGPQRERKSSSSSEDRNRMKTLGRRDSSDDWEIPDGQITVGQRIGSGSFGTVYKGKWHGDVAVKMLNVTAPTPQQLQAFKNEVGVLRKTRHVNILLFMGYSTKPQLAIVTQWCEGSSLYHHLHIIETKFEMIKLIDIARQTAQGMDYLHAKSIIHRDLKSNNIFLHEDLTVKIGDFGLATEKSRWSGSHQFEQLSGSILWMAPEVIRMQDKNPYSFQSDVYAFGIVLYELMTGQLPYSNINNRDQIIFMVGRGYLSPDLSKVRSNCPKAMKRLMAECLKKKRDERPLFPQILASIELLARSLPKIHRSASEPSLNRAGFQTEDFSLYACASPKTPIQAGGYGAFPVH
Test: Inhibition of BRAF V600E mutant-mediated ERK phosphorylation in human WM266.4 cells
Format: cell-based
observed property: pIC50
# reply with the number alone; pIC50 is -log10 of concentration in mol/L

Would you kindly share the measured pIC50 for CC(C)(C)c1cccc(NC(=O)Nc2cccc(Oc3ccnc4[nH]c(=O)[nH]c34)c2)c1 ?
4.99

May I ask what pIC50 has been recorded for O=C(Nc1cc(C(F)(F)F)ccc1F)c1cccc(Oc2ccnc3[nH]c(=O)[nH]c23)c1 ?
4.46

Which pIC50 value belongs to O=C(Nc1cccc(Oc2ccnc3[nH]c(=O)[nH]c23)c1)c1ccc(Cl)c(C(F)(F)F)c1 ?
4.55

Fill blank: measured pIC50 of the compound CC(C)c1cc(C(=O)Nc2cccc(Oc3ccnc4[nH]c(=O)[nH]c34)c2)n(-c2ccccc2)n1 is ____.
4.86

// pIC50 lookup, key: O=C(Nc1cccc(Oc2ccnc3[nH]c(=O)[nH]c23)c1)Nc1cc(C(F)(F)F)ccc1F
4.91

Bench note: what pIC50 did O=C(Nc1cccc(Oc2ccnc3[nH]c(=O)[nH]c23)c1)c1cccc(OC(F)(F)C(F)F)c1 show?
5.24

I have this compound here, O=C(Nc1cc(Oc2ccnc3[nH]c(=O)[nH]c23)c(F)cc1F)c1cccc(OC(F)(F)F)c1 , and I need its recorded pIC50.
5.16

Item under review: O=C(Nc1cccc(Oc2ccnc3[nH]c(=O)[nH]c23)c1)c1cc(F)cc(N2CCOCC2)c1 . Reported pIC50?
4.68

Which pIC50 is listed for CC(C)(C)c1cccc(C(=O)Nc2cccc(Oc3ccnc4[nH]c(=O)[nH]c34)c2)c1 ?
5.46

So what does the record say about pIC50 for O=C(Nc1cccc(Oc2ccnc3[nH]c(=O)[nH]c23)c1)c1cccc(SC(F)(F)F)c1 ?
5.19

Looking for the measured pIC50 of O=C(Nc1cccc(OC(F)(F)F)c1)c1cccc(Oc2ccnc3[nH]c(=O)[nH]c23)c1 , can you help?
4.84

Request the reported pIC50 associated with CCC(C)(C)c1cccc(C(=O)Nc2cccc(Oc3ccnc4[nH]c(=O)[nH]c34)c2)c1
5.51

Endpoint output: pIC50 of O=C(Nc1cc(Cl)cc(Oc2ccnc3[nH]c(=O)[nH]c23)c1)c1cccc(OC(F)(F)F)c1 . Value?
4.95

// returns reported pIC50 for input O=C(Nc1cccc(Oc2ccnc3[nH]c(=O)[nH]c23)c1)c1cc(Cl)cc(C(F)(F)F)c1
4.62

---

Target: Serine/threonine-protein kinase B-raf (Homo sapiens, UniProt P15056, V600E)
Assay: Inhibition of BRAF V600E mutant-mediated ERK phosphorylation in human WM266.4 cells
Format: cell-based
Assignment: determine reported pIC50 for the given compounds.
A value of pIC50 is the negative decimal logarithm of a concentration given in moles per litre.

Using the record for O=C(Cc1cccc(C(F)(F)F)c1)Nc1cccc(Oc2ccnc3[nH]c(=O)[nH]c23)c1 , report its pIC50.
4.75

Which pIC50 is listed for O=C(Nc1cccc(SC(F)(F)F)c1)c1cccc(Oc2ccnc3[nH]c(=O)[nH]c23)c1 ?
4.89

Would you mind telling me what pIC50 value was observed for O=C(Nc1cccc(OC(F)(F)C(F)F)c1)c1cccc(Oc2ccnc3[nH]c(=O)[nH]c23)c1 ?
5.10

If you can, please state the reported pIC50 value of Cc1ccc(-n2nc(C(F)(F)F)cc2NC(=O)c2cccc(Oc3ccnc4[nH]c(=O)[nH]c34)c2)cc1 .
4.83
